Data credit: patent US20220380463A1

Molecular target: T1, Cynomolgus CD3εδ Fc heterodimer (Cy CD3ε Fc / CD3δ Fc-HIS) (cynomolgus, UniProt Q95LI8 22-100)
T1 chain 1: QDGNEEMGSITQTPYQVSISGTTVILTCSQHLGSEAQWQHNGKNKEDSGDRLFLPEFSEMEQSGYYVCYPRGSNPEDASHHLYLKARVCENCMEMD
T1 chain 2: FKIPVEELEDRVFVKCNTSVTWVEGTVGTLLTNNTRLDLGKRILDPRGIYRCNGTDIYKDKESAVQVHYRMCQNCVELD
Test: BLI (Octet), IgG on AHC sensor, pH 6.0
quantity-measured: koff (s⁻¹)
Lab book: enter the figure in s⁻¹, no units written.

Consider the binder SAD10318_P03_G08 (ADI-57285) (antibody, V domains shown, IgG; also called Ab201) VH: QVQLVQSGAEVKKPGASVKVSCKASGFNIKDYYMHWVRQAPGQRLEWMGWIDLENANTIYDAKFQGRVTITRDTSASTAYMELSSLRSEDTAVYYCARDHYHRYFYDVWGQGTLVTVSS VL: DIVMTQSPDSLAVSLGERATINCKSSQSLLHARTGKNHLAWYQQKPGQPPKLLIYWASTRESGVPDRFSGSGSGTDFTLTISSLQAEDVAVYYCKQSHSHRTFGGGTKVEIK and give its measured koff.
0.00544

Which value of koff has been reported for SAD10320_P02_F06 (ADI-57370) (antibody, V domains shown, IgG; also called Ab87) VH: QVQLVQSGAEVKKPGASVKVSCKASGFNIKDYYMHWVRQAPGQRLAWMGWIDLENANTIYDAKFQGRVTITRDTSASTAYMELSSLRSEDTAVYYCARDAYGRFHYDVWGQGTLVTVSS VL: DIVMTQSPDSLAVSLGERATINCKSSQSLLNARPGKNYLAWYQQKPGQPPKLLIYWASTRESGVPDRFSGSGSGTDFTLTISSLQAEDVAVYYCKQSYSRRTFGGGTKVEIK in the records?
0.017

Item under review: SAD10318_P03_B08 (ADI-57284) (antibody, V domains shown, IgG; also called Ab196) VH: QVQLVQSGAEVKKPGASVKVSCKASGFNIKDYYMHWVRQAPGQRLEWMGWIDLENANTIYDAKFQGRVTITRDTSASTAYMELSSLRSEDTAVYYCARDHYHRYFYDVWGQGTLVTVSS VL: DIVMTQSPDSLAVSLGERATINCKSSQSLLNAHTGHNYLAWYQQKPGQPPKLLIYWASTRESGVPDRFSGSGSGTDFTLTISSLQAEDVAVYYCHQSYSHRTFGGGTKVEIK . Reported koff?
0.00303

Endpoint output: koff of SAD10319_P06_B11 (ADI-57422) (antibody, V domains shown, IgG; also called Ab151) VH: QVQLVQSGAEVKKPGASVKVSCKASGYTFHSYDMHWVRQAPGQRLEWMGWIDAGTGATTYSQKFQGRVTITRDTSASTAYMELSSLRSEDTAVYYCARDAYGHYFYDVWGQGTLVTVSS VL: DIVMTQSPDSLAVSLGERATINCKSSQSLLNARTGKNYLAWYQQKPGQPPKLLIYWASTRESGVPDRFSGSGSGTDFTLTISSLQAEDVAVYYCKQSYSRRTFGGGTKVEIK . Value?
0.0101

Requested read-out: koff. Entry: SAD10319_P06_H11 (ADI-57436) (antibody, V domains shown, IgG; also called Ab166) VH: QVQLVQSGAEVKKPGASVKVSCKASGYTFTDYDMHWVRQAPGHRLEWMGWINAGDAATVYSQKFQGRVTITRDTSASTAYMELSSLRSEDTAVYYCARDAYGHYFYDHWGQGTLVTVSS VL: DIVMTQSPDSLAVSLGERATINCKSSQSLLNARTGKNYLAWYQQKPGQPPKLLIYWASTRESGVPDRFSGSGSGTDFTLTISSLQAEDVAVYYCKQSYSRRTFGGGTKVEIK
0.0285
